Test: rat pharmacokinetics, plasma LC-MS/MS
Assay type: in vivo
Conditions: male, Sprague-Dawley, plasma, IV 5 mg/kg

[
  {
    "COMPOUND": "CCOc1cc(C=C2S/C(=N/c3ccc(C(=O)O)cc3)N(C)C2=O)ccc1O (stereo in doubt)",
    "AUC(0-inf) [ng·h/mL]": 690
  }
]

---

Test: rat pharmacokinetics, plasma LC-MS/MS
Assay type: in vivo
Details: male, Sprague-Dawley, plasma, iv, 5 mg/kg, IV 5 mg/kg, read-out: terminal plasma half-life (range)

[
  {
    "MOLECULE": "CCOc1cc(C=C2S/C(=N/c3ccc(C(=O)O)cc3)N(C)C2=O)ccc1O (stereo in doubt)",
    "half-life": "10.8 to 40.8 min"
  }
]
